measurement target: HLA-A*26:01
protocol summary: IEDB peptide-MHC binding, purified MHC/competitive/radioactivity; filed as Kd, often an IC50 or EC50 that approximates it; bounds were set here for any values at or beyond the usual limits of such assays
condition parameters: source organism: Influenza A virus (A/Wilson-Smith/1933(H1N1))
pKd: −log10 of the molar value.

chain sequence: DQHGRMNYYW
pKd: 6.18

###

measurement target: HLA-B*44:03
protocol summary: IEDB peptide-MHC binding, purified MHC/competitive/radioactivity; filed as Kd, often an IC50 or EC50 that approximates it; bounds were set here for any values at or beyond the usual limits of such assays
condition parameters: source organism: Mammarenavirus tacaribeense

chain sequence: EEVPTLIKTL
Kd (µM): 3.32
